From: PubChem BioAssay (NCI)

assay.method.text: NCI Yeast Anticancer Drug Screen. Data for the cln2 rad14 strain (AID 165);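 also: 0% = growth equal to vehicle treated cultures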
condition.set: S. cerevisiae cln2 rad14 strain, at 50.0 µM, stronger effect = higher value
This is part of a sample that, as a whole, favours compounds with a hit. Of some 79,000 tested, about 15% had one in any assay. Where a SMILES comes first, the peptide text is derived from it. [ ]: non-standard residue; d: D form. ξ: configuration not given here. ξPhe(4-N(CH2CH2Cl)2) = NC(Cc1ccc(N(CCCl)CCCl)cc1)C(=O)O; Aad = N[CH](CCCC(=O)O)C(=O)O
measured.quantity: growth inhibition (%)
Unit % implied. Number only.

[[record]]
compound = "Nc1ccc(Sc2ccc(N)cc2)cc1"
measured_quantity = "growth inhibition"
readout_number = -53.1

[[record]]
compound = "O=C(COc1cccc(Cl)c1)Nc1cccc(NC(=O)c2ccc(S(=O)(=O)F)cc2)c1"
measured_quantity = "growth inhibition"
readout_number = -17.2

[[record]]
compound = "O=C(O)/C=C/c1ccc(S(=O)(=O)F)cc1"
measured_quantity = "growth inhibition"
readout_number = 15.9

[[record]]
compound = "OCCC[n+]1cccc2ccccc21"
measured_quantity = "growth inhibition"
readout_number = -41.6

[[record]]
compound = "O=C(O)C(O)c1ccc(Cl)cc1 (centres undefined)"
measured_quantity = "growth inhibition"
readout_number = -15.1

[[record]]
compound = "O=S(=O)(c1ccccc1)c1ccccc1"
measured_quantity = "growth inhibition"
readout_number = -8.05

[[record]]
compound = "NCC(Cc1ccccc1)P(=O)(O)O (centres undefined)"
measured_quantity = "growth inhibition"
readout_number = -42.3

[[record]]
compound = "CCOC(=O)C(Cc1ccc(N(CCCl)CCCl)cc1)NC(=O)C(CCC(=O)O)NC(=O)C(Cc1ccc(O)cc1)NC(=O)C(CCCC(=O)O)NC(=O)C(N)Cc1ccc(O)cc1 (centres undefined) (H-Y[Aad]YE[ξPhe(4-N(CH2CH2Cl)2)]-OEt; configuration not given here)"
measured_quantity = "growth inhibition"
readout_number = 14.8

[[record]]
compound = "O=C(/C=C/c1ccccc1)CCC1C(=O)NC(=S)NC1=O"
measured_quantity = "growth inhibition"
readout_number = 0.4

[[record]]
compound = "Cc1ccc(C(=O)Nc2ccc(CP(=O)(O)O)cc2)cc1NC(=O)Nc1cc(C(=O)Nc2ccc(CP(=O)(O)O)cc2)ccc1C"
measured_quantity = "growth inhibition"
readout_number = 11.9


Prompt: # return recorded growth inhibition for input CCOC(=N)CC(O)C(Cl)(Cl)Cl (centres undefined)
Completion: -47.2

Prompt: # return recorded growth inhibition for input C(=NCCN1CCOCC1)=NC1CCCCC1
Completion: -21.1

Prompt: # return recorded growth inhibition for input N#CC(C#N)=Cc1ccccc1C(=O)O
Completion: 14.7

Prompt: # return recorded growth inhibition for input O=c1n(Cc2ccccc2)c2ccccc2n1CC1CS1 (centres undefined)
Completion: 4.75

Prompt: # return recorded growth inhibition for input CCN(CC)[P+](C1=C(Cl)C(=O)C(Cl)=C(Cl)C1=O)(N(CC)CC)N(CC)CC
Completion: -19.5

Prompt: # return recorded growth inhibition for input O=CC1(c2ccccc2)CCN(Cc2ccccc2)CC1
Completion: 41.3

Prompt: # return recorded growth inhibition for input COc1ccc(C(=O)O[C@H]2CC[C@@]3(C)[C@@H]4CC[C@H]5[C@]6(O)C[C@H](O)[C@@]7(O)[C@@H](CN8C[C@@H](C)CC[C@H]8[C@@]7(C)O)[C@]6(O)C[C@@]53OC24O)cc1OC
Completion: 6.4

Prompt: # return recorded growth inhibition for input C1CCC(N([P-]P([P-]N(C2CCCCC2)C2CCCCC2)N(C2CCCCC2)C2CCCCC2)C2CCCCC2)CC1.[C-]#[O+].[C-]#[O+].[C-]#[O+].[C-]#[O+].[C-]#[O+].[C-]#[O+].[Fe].[Fe] (centres undefined)
Completion: -8.1

Prompt: # return recorded growth inhibition for input BrCC[N+]12CC[N+](CCBr)(CC1)C2 (tested in a mixture with another compound)
Completion: 61.5
